The reported numbers originate from paper PMC6627331.

Molecular target: S. aureus RNase P (RnpA + rnpB) (Staphylococcus aureus)
Construct: hexahistidine (His6) (N); made in house; host or cells: E. coli BL21 (DE3), plasmid pEXP5-nt
Assay: RnpA-dependent RNase P in vitro ptRNA^Tyr processing assay
Format: biochemical
Details: in vitro ptRNA^Tyr processing; read-out: Processing IC50
pIC50: −log10 of the molar value.
Given measured pIC50, output label 1 if it is greater than or equal to 4 and label 0 if not.

Reference set, count: 5
COMPOUND	MEASURED TARGET	CAT
O=C(Nc1cc(Cl)cc(Cl)c1)N1CCCCCC1	S. aureus RNase P (RnpA + rnpB) (Staphylococcus aureus)	label 0
CC1CCN(C(=O)Nc2cc(Cl)cc(Cl)c2)CC1	S. aureus RNase P (RnpA + rnpB) (Staphylococcus aureus)	label 0
CCN1CCN(C(=O)Nc2cc(Cl)cc(Cl)c2)CC1	S. aureus RNase P (RnpA + rnpB) (Staphylococcus aureus)	label 0
CCCN1CCN(C(=O)Nc2cc(Cl)cc(Cl)c2)CC1	S. aureus RNase P (RnpA + rnpB) (Staphylococcus aureus)	label 0
Nc1sc2c(c1C(=O)Nc1ccc(Cl)cc1)CCCCC2	S. aureus RNase P (RnpA + rnpB) (Staphylococcus aureus)	label 1

### Prompt Confirm if pIC50 reported for the compound CC1CN(C(=O)Nc2cc(Cl)cc(Cl)c2)CC(C)O1 (stereo not shown) is 4 or above.
### Response label 0

### Prompt Is reported pIC50 greater than or equal to 4 here: CC1CCCCN1C(=O)Nc1cc(Cl)cc(Cl)c1 (stereo not shown)
### Response label 0

### Prompt Determine whether this compound has pIC50 no lower than 4: CN1CCN(C(=O)Nc2cc(Cl)cc(Cl)c2)CC1
### Response label 0

### Prompt I'd appreciate it if you could say whether CCC1CCCCN1C(=O)Nc1cc(Cl)cc(Cl)c1 (stereo not shown) has pIC50 at least equal to 4.
### Response label 0

### Prompt Decide: pIC50 of O=C(Nc1ccc(Cl)cc1)c1c(NC(=O)C(F)(F)F)sc2c1CCCCC2 >= 4?
### Response label 1

###

Target: S. aureus RnpA (Staphylococcus aureus, UniProt P0A0H5)
Construct: hexahistidine (His6) (N); made in house; host or cells: E. coli BL21 (DE3), plasmid pEXP5-nt
Sequence (P0A0H5 whole entry): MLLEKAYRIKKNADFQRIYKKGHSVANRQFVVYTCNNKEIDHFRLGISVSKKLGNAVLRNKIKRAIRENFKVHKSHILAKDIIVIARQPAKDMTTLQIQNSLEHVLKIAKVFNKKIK
Assay: RnpA-mediated in vitro spa mRNA degradation assay
Format: biochemical
Conditions: SAR figures, read-out: dIC50 = degradation IC50
pIC50: −log10 of the molar value.
Items are presented alongside their recorded pIC50.

### Prompt Name the recorded pIC50 for CCC1CCCCN1C(=O)Nc1ccc(Br)cc1 (stereo not drawn) .
### Response < 3.30

### Prompt Dear colleague, I am looking for the recorded pIC50 of the following compound: CCC1CCCCN1C(=O)Nc1ccccc1 (stereo not drawn)
### Response < 3.30

###

Tested on: S. aureus UAMS-1
Experiment: Minimum inhibitory concentration (MIC) testing
Assay type: cell-based, Staphylococcus aureus
Details: Staphylococcus aureus, UAMS1, 16 h, S. aureus UAMS-1, 16 h in MHB; read-out: MIC
Procedure: Minimum inhibitory concentration (MIC) testing was performed using to Clinical & Laboratory Standards Institute (CLSI) guidelines. Accordingly, individual wells of a 96-well microtiter plate were inoculated with 10^4 colony forming units (CFU) of S. aureus UAMS-1 containing two-fold increasing concentrations (0 to 256 μg·mL^−1) of the indicated antibiotic or putative RnpA inhibitor compound, and incubated at 37 °C for 16 h in MHB. […]
PARAMETER MEASURED: MIC (µg/mL)
Give the value, in units of µg/mL, as a plain number.

Sample records with MIC:
MOLECULE	MIC [µg/mL]
CN1CCN(C(=O)Nc2cc(Cl)cc(Cl)c2)CC1	8
CCN1CCN(C(=O)Nc2cc(Cl)cc(Cl)c2)CC1	8
C/C(=C\C(=O)OCCCCCCCCC(=O)O)C[C@@H]1OC[C@H](C[C@@H]2O[C@H]2[C@@H](C)[C@H](C)O)[C@@H](O)[C@H]1O [mupirocin, reference compound]	0.125
O=C(Nc1cc(Cl)cc(Cl)c1)N1CCCCCC1	128

Consider the additional molecule presented here.
### Prompt What value of MIC has been reported for the following molecule? CCCN1CCN(C(=O)Nc2cc(Cl)cc(Cl)c2)CC1
### Response 1

###

Target: S. aureus RNase P (RnpA + rnpB) (Staphylococcus aureus, UniProt P0A0H5)
Construct: hexahistidine (His6) (N); made in house; host or cells: E. coli BL21 (DE3), plasmid pEXP5-nt
Test: RnpA-dependent RNase P in vitro ptRNA^Tyr processing assay
Format: biochemical
Conditions: SAR figures; in vitro ptRNA^Tyr processing; read-out: pIC50 = processing IC50 (converted)
# key: entry, value: IC50

Solved entries:
COMPOUND	PARAMETER MEASURED	ENDPOINT RESULT
O=C(Nc1ccc(Cl)cc1)N1CCCCCC1	IC50	> 500 µM
CCC1CCCCN1C(=O)Nc1cccc(Cl)c1 (centres unmarked)	IC50	500 µM
CC1CCCCN1C(=O)Nc1ccccc1 (centres unmarked)	IC50	> 500 µM
CN1CCN(C(=O)Nc2cc(Cl)cc(Cl)c2)CC1	IC50	> 500 µM
CCC1CCCCN1C(=O)Nc1ccccc1 (centres unmarked)	IC50	> 500 µM
O=C(Nc1ccccc1)c1c(NC(=O)C(F)(F)F)sc2c1CCCCC2	IC50	10 µM
O=C(Nc1ccccc1Cl)c1c(NC(=O)C(F)(F)F)sc2c1CCCCC2	IC50	2 µM
CCC1CCCCN1C(=O)Nc1ccc(Br)cc1 (centres unmarked)	IC50	> 500 µM
Cc1ccc(NC(=O)N2CCCCC2C)cc1Cl (centres unmarked)	IC50	> 500 µM
O=C(Nc1cccc(Cl)c1)c1c(NC(=O)C(F)(F)F)sc2c1CCCC2	IC50	6 µM

### Prompt Find the recorded IC50 belonging to CC1CCN(C(=O)Nc2cccc(Cl)c2)CC1 and report it.
### Response > 500 µM

###

Test system: S. aureus UAMS-1
Experiment: Minimum inhibitory concentration (MIC) testing
Assay type: cell-based, Staphylococcus aureus
Settings: Staphylococcus aureus, UAMS1, 16 h, S. aureus UAMS-1, 16 h in MHB; read-out: MIC
Each entry below carries its recorded MIC.

Look over these answered cases.
MOLECULE	MIC
O=C(Nc1cccc(Cl)c1)c1c(NC(=O)C(F)(F)F)sc2c1CCCCC2 [JR3]	0.25 to 1 µg/mL
CC(=O)Nc1sc2c(c1C(=O)Nc1ccc(Cl)cc1)CCCCC2 [JR1b]	> 256 µg/mL
O=C(Nc1ccccc1Cl)c1c(NC(=O)C(F)(F)F)sc2c1CCCC2 [JR2b]	> 256 µg/mL
O=C(Nc1ccc(Cl)cc1)N1CCCCCC1 [JC5c]	> 256 µg/mL
Cc1ccc(NC(=O)c2c(NC(=O)C(F)(F)F)sc3c2CCCCC3)cc1 [JR5]	0.25 to 1 µg/mL

### Prompt Looking for the measured MIC of CCC1CCCCN1C(=O)Nc1ccc(Br)cc1 (stereo not drawn) [JC3e] , can you help?
### Response > 256 µg/mL

### Prompt Requested read-out: MIC. Entry: COc1ccc(NC(=O)c2c(NC(=O)C(F)(F)F)sc3c2CCCCC3)cc1 [JR6]
### Response 0.25 to 1 µg/mL

###

Tested on: HepG2 cells
Assay: MTT human cell cytotoxicity testing
Format: cell-based
Settings: SAR figures; 4× MIC exposure for 24 h
Sorting guide: entries reporting MTT = % HepG2 cell survival beneath 80% go in the fulfilled pile, the rest go in the not fulfilled pile.

Consider the following illustrative entries.
COMPOUND	MEASURED TARGET	CAT
O=C(Nc1cc(Cl)cc(Cl)c1)N1CCCCCC1 [JC5]	HepG2 cells	fulfilled
Nc1sc2c(c1C(=O)Nc1ccc(Cl)cc1)CCCCC2 [JR1c]	HepG2 cells	fulfilled
CCC1CCCCN1C(=O)Nc1cccc(Cl)c1 (stereo not drawn) [JC3b]	HepG2 cells	not fulfilled
Cc1ccc(NC(=O)c2c(NC(=O)C(F)(F)F)sc3c2CCCCC3)cc1 [JR5]	HepG2 cells	not fulfilled
O=C(Nc1cccc(Cl)c1)c1c(NC(=O)C(F)(F)F)sc2c1CCCCC2 [JR3]	HepG2 cells	not fulfilled
O=C(Nc1cccc(Cl)c1)c1c(NC(=O)C(F)(F)F)sc2c1CCCC2 [JR3b]	HepG2 cells	not fulfilled

### Prompt For CCN1CCN(C(=O)Nc2cc(Cl)cc(Cl)c2)CC1 [JC7] , is the recorded MTT = % HepG2 cell survival below the cut-off of 80%?
### Response fulfilled

### Prompt Bench note: check whether CCC1CCCCN1C(=O)Nc1cc(Cl)cc(Cl)c1 (stereo not drawn) [JC3] shows MTT = % HepG2 cell survival below 80%
### Response fulfilled

### Prompt Lab log: compare recorded MTT = % HepG2 cell survival with 80%; is it strictly lower for CC1CN(C(=O)Nc2cc(Cl)cc(Cl)c2)CC(C)O1 (stereo not drawn) [JC9] ?
### Response not fulfilled
